Experiment description: Pharmacokinetics of single ascending doses in healthy Japanese volunteers
Format: in vivo, human
Condition details: human, plasma, oral; 500 mg single dose, fasted (n = 6); read-out: Mean Cmax (SD)

Compound string	Endpoint unit	Cmax
C[C@H](NS(=O)(=O)c1cc(C(=O)Nc2ccc(F)c(C#N)c2)n(C)c1)C(F)(F)F	µg/mL	0.328

---

Experiment description: Pharmacokinetics of single ascending doses in healthy Japanese volunteers
Format: in vivo, human
Condition details: human, plasma, oral; 25 mg single dose, fasted (n = 6); read-out: Mean Cmax (SD)

Molecule	Cmax [ng/mL]
C[C@H](NS(=O)(=O)c1cc(C(=O)Nc2ccc(F)c(C#N)c2)n(C)c1)C(F)(F)F [Compound A]	375

---

Experiment description: Oral bioavailability of Compound A 25-mg and 100-mg oral tablets, fasted and fed, in healthy adult subjects
Type: in vivo, human
Condition details: both sexes, human, in vivo, oral, 300 mg, 3 × 100 mg, Fasting, Treatment C; read-out: tmax (median)
Recorded metric: Tmax (h)

Compound	Recorded measurement
C[C@H](NS(=O)(=O)c1cc(C(=O)Nc2ccc(F)c(C#N)c2)n(C)c1)C(F)(F)F [Compound A]	3

---

Experiment description: Pharmacokinetics of single ascending doses in healthy Japanese volunteers
Type: in vivo, human
Condition details: human, plasma, oral; 160 mg single dose, fasted (n = 6); read-out: Mean Vd/F (SD)
Procedure: A double-blind, placebo-controlled study was done to assess the safety, tolerability, and pharmacokinetics (PK) of Compound A. Thirty-two healthy adult Japanese volunteers were randomized into four cohorts. […] The safety, tolerability and PK plasma profiles of Compound A were assessed after each dose. Full plasma PK profiles were determined up to 28 days after each single dose of Compound A. Urinary elimination was assessed in Cohort C (see FIG. 4) for 7 day. […]

Compound string	Vd/F / L
C[C@H](NS(=O)(=O)c1cc(C(=O)Nc2ccc(F)c(C#N)c2)n(C)c1)C(F)(F)F	126

---

Experiment description: Pharmacokinetics of single ascending doses in healthy Japanese volunteers
Assay type: in vivo, human
Condition details: human, plasma, oral; 25 mg single dose, fasted (n = 6); read-out: Median tmax

Compound string	Endpoint unit	Tmax
C[C@H](NS(=O)(=O)c1cc(C(=O)Nc2ccc(F)c(C#N)c2)n(C)c1)C(F)(F)F	h	1.75

---

Experiment description: Oral bioavailability of Compound A 25-mg and 100-mg oral tablets, fasted and fed, in healthy adult subjects
Assay type: in vivo, human
Condition details: both sexes, human, in vivo, oral, 150 mg, 6 × 25 mg, Fed (Standard Breakfast), Treatment A; read-out: Cmax (mean)
Description: […]
Recorded metric: Cmax (ng/mL)

Molecule	Recorded measurement
C[C@H](NS(=O)(=O)c1cc(C(=O)Nc2ccc(F)c(C#N)c2)n(C)c1)C(F)(F)F [Compound A]	1540

---

Experiment description: Pharmacokinetics of single ascending doses in healthy Japanese volunteers
Type: in vivo, human
Condition details: human, plasma, oral; 300 mg single dose, fasted (n = 6); read-out: Median tmax

Compound string	Tmax [h]
C[C@H](NS(=O)(=O)c1cc(C(=O)Nc2ccc(F)c(C#N)c2)n(C)c1)C(F)(F)F	3

---

Experiment description: Oral bioavailability of Compound A 25-mg and 100-mg oral tablets, fasted and fed, in healthy adult subjects
Assay type: in vivo, human
Condition details: both sexes, human, in vivo, oral, 150 mg, 6 × 25 mg, Fasting, Treatment B; read-out: tmax (median)

Compound string	Tmax
C[C@H](NS(=O)(=O)c1cc(C(=O)Nc2ccc(F)c(C#N)c2)n(C)c1)C(F)(F)F	1.75 h
